- Tested on: MSSA
# MIC50 values compiled below
Readout: MIC50

# Smiles Str, Result
measured = [
    ("CC[C@H]1OC(=O)[C@H](C)[C@@H](O[C@H]2C[C@@](C)(OC)[C@@H](O)[C@H](C)O2)[C@H](C)[C@@H](O[C@@H]2O[C@H](C)C[C@H](N(C)C)[C@H]2O)[C@](C)(O)C[C@@H](C)CN(C)[C@H](C)[C@@H](O)[C@]1(C)O", "2 µg/mL"),
    ("COc1c(N2C[C@@H]3CCCN[C@@H]3C2)c(F)cc2c(=O)c(C(=O)O)cn(C3CC3)c12", "0.06 µg/mL"),
    ("CC[C@H]1OC(=O)[C@@](C)(F)C(=O)[C@H](C)[C@@H](O[C@@H]2O[C@H](C)C[C@H](N(C)C)[C@H]2O)[C@](C)(OC)C[C@@H](C)C(=O)[C@H](C)[C@H]2N(CCCCn3cc(-c4cccc(N)c4)nn3)C(=O)O[C@]12C", "0.015 µg/mL"),
    ("NC[C@H]1O[C@H](O[C@H]2[C@H](O)[C@@H](O[C@H]3O[C@H](CO)[C@@H](O)[C@H](N)[C@H]3O)[C@H](N)C[C@@H]2N)[C@H](N)C[C@@H]1O", "0.5 µg/mL"),
]
